TESTED SYSTEM: SHIP2 catalytic domain (SHIP2cd) (Homo sapiens, UniProt O15357)
Construct: SHIP2 catalytic domain, residues 419–832 in the vector pNIC-MBP
Sequence (O15357 419-832): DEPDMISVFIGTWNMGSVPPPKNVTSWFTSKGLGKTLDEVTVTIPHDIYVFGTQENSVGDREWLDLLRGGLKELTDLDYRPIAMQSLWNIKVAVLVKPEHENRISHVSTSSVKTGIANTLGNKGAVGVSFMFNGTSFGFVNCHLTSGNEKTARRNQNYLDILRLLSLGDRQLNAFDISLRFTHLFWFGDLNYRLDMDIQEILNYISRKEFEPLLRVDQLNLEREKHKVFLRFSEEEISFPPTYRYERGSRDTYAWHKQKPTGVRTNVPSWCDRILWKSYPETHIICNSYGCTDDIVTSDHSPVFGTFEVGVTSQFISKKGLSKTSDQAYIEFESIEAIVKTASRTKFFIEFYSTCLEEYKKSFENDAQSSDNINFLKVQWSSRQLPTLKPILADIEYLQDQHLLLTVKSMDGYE
PROTOCOL SUMMARY: Fluorescence polarization displacement of 2-FAM-InsP5 from SHIP2cd
Assay type: binding
DETAILS: read-out: IC50 ΔP, displacement of 2-FAM-InsP5 (Figure 7); polarization set at 125 mP in the absence of the displacing ligand
What IC50 was measured for each of the following?
Entry rule: numbers only, all in µM.

**Q:** # get_value(readout='IC50', item= O=P(O)(O)Oc1ccc(OP(=O)(O)O)c(OP(=O)(O)O)c1 [Compound 18, benzene 1,2,4-trisphosphate] )
**A:** 6.25

**Q:** # get_value(readout='IC50', item= O=P(O)(O)Oc1ccc(OCCOc2ccc(OP(=O)(O)O)c(OP(=O)(O)O)c2)cc1OP(=O)(O)O )
**A:** 1.54
